- EXPERIMENTAL TARGET: Influenza virus A/Brisbane/59/2007 (H1N1) (Influenza A virus A/Brisbane/59/2007 (H1N1))
- EXPERIMENTAL PROTOCOL: cell-based or functional assay
Quick reference: Neutralizing activity (%) at 250 µg/ml of the listed items.

{"BINDER": "Group 44 representative clone F081-008, Fab-PP-type antibody (Fab, V domains shown) VH: QVQLVQSGAEVKKPGSSVKVSCKASGGTFSSFSTYTISWVRQAPGQGLEWMGRSIPLLGITNYAQKFQGRVTITADISTSTAYMELSSLRSEDTAVYYCARYQSSDYYNSEYFQHWGQGTLVTVSS VL: EIVLTQSPGTLSLSLGERVTLSCRASQNVGTNYLAWYQQKPGQAPRLLIYGASSRATGVPDRFSGSGSGTDFTLTISRLAPEDFAVYYCQQYSSSPLTFGGGTKLEIK", "Neutralizing activity (%) at 250 µg/ml": "100%"}
{"BINDER": "Group 3 representative clone F081-281, Fab-PP-type antibody (Fab, V domains shown) VH: QVQLVQSGSEVKKPGSSVKVSCSFKASGGIISKYAITWVRQAPGQGLEWMGGIIAIFGSTNYAQKFQGRLTITSDESTSTAYMELSSLTSEDTAVYYCGRGPHYYESHLDYWGQGTLVTVSS VL: EIVLTQSPGTLSLSPGERATLSCRASQGMSSSFLAWYQQKPGQPPRLLISGASTRATGIPDRFSGSGSGTDFTLTINRLEPEDFAVYYCQQYGSSPRTFGQGTKVEIK", "Neutralizing activity (%) at 250 µg/ml": "100%"}
{"BINDER": "Group 54 representative clone F083-354, Fab-PP-type antibody (Fab, V domains shown) VH: QVQLVQSGSEVKKPGSSVKVSCKASGGIFNSYGISWVRQAPGQGLEWMGGILAIFGTTNYAQKFQGRVTITADDSSKTVYMELSSLTSEDTAVYYCARGSTYYSSYFDQWGQGTLVTVSS VL: DIQMTQSPSSLSASVGDRVTITCRASQGIRNSLAWYQQKPGQVPKLLIYSATTLRSGVPYRFSGSGSGTDFTLTISGLQPEDVGTYFCHRYDSAPLTFGGGTRVALK", "Neutralizing activity (%) at 250 µg/ml": "100%"}
{"BINDER": "Group 35 representative clone F082-117, Fab-PP-type antibody (Fab, V domains shown) VH: QVQLVQSGSEVKKPGSSVKVSCKSSGGILRRSAISWVRQAPGQGLEWMGGILAIFGTTKYAQKFQGRITITADESTNTVHMELSSLRPDDTAVYYCAGGPHYYVSYFDSWGQGTLVTVSS VL: DIQMTQSPATLSLSPGERATLSCRASQSVRSYLAWYQQKPGQAPRLLIYDASNRATGIPARFSGSGSGTEFTLTISRLEPEDFAVYYCQQRSNWLFTFGPGTKVDFK", "Neutralizing activity (%) at 250 µg/ml": "100%"}
{"BINDER": "Group 59 representative clone F083-351, Fab-PP-type antibody (Fab, V domains shown) VH: QVQLVQSGADVKKAGSSVKVSCKASGRTFGNYAISWVRQAPGQGLEWMGGITPIFGAANYAQKFQGRVTISADLSTRMVYMDLSSLRSDDTAFYYCAGHPMYHYGSAMDYWGQGTLVTVSS VL: QSVLTQPPSASGTPGQRVSISCFGSRSNVGSSSVNWYQQLPGRAPKLLIQRNDQRPSGVPDRFSGSKSGTSASLAISGLQSDDESTYYCAAWDDSVKSVVFGGGTQLTVLG", "Neutralizing activity (%) at 250 µg/ml": "100%"}
